System: RPMI-8226 leukemia
Assay: NCI-60 one-dose screen, 48 h (100 = growth as untreated, 0 = no growth, -100 = all killed)
Conditions: 10 µM unless noted
About 83,000 compounds went through this panel and 20% of them were active in at least one assay; those are over-represented in the sample as a whole.
Each entry below carries its recorded growth.
value kind: growth (%)

INSERT INTO assay_data (compound, value_kind, units_text, reported_result) VALUES
  ('CC(C)(C)[Si](C)(C)OC1[C@@H](O[Si](C)(C)C(C)(C)C)[C@@H](CNC(=O)NC(=O)NC(=O)CI)O[C@H]1n1cnc2c(NC(=O)Nc3ccccc3)ncnc21 (stereo partly specified)', 'growth', '%', 35.2),
  ('CCOC(=O)C1=C(C)NC(=S)NC1c1ccccc1 (stereo unspecified)', 'growth', '%', 112),
  ('COc1ccc(C2NC(=O)c3cc4c(cc3N2)OCO4)cc1 (stereo unspecified)', 'growth', '%', 27.8),
  ('CC(C)CC1NC(=O)C(CC(C)C)N(CO)C1=O (stereo unspecified)', 'growth', '%', 81.1),
  ('CC(=O)OC[C@H]1O[C@@H](n2c(=O)cc(N)[nH]c2=O)C(OC(C)=O)[C@@H]1OC(C)=O (stereo partly specified)', 'growth', '%', 103),
  ('CCOC(=O)Cn1c(-c2nonc2NC(=O)c2ccccc2F)nc2ccccc21', 'growth', '%', 40.6),
  ('CCNC(=O)c1ccc2c(c1)nc(-c1ccc(Cl)cc1)n2-c1cc(C(C)(C)C)[nH]n1', 'growth', '%', 76.5),
  ('ClCc1c(Cl)c(Cl)c(Cl)c(CCl)c1Cl', 'growth', '%', 18.4),
  ('C=C(C)[C@@H]1CC[C@]2(C(=O)NC(COC(=O)C(Cl)Cl)(COC(=O)C(Cl)Cl)COC(=O)C(Cl)Cl)CC[C@]3(C)[C@H](CC[C@@H]4[C@@]5(C)CC[C@H](OC(C)=O)C(C)(C)[C@@H]5CC[C@]43C)[C@@H]12', 'growth', '%', 2.68),
  ('CC(C)(C)[Si](C)(C)OC1[C@@H](CNC(N)=O)O[C@@H](n2cnc3c(NC(=O)Nc4ccccc4)ncnc32)[C@H]1O[Si](C)(C)C(C)(C)C (stereo partly specified)', 'growth', '%', 47.6),
  ('O=C1Nc2ccccc2/C1=C\c1nc(C2CCN(S(=O)(=O)c3ccc(F)cc3)CC2)n2ccccc12', 'growth', '%', 94.3),
  ('Cc1ccncc1NC=O', 'growth', '%', 99.9),
  ('CCN(CC)CCCCCCCCNc1c2ccc(Cl)cc2nc2ccc(OC)cc12', 'growth', '%', -43.8),
  ('CCN(CC)C(=O)O/N=C(/C)c1ccccc1', 'growth', '%', 105),
  ('COc1ccc(C(=O)N2N=C(c3ccc(F)cc3)CC2c2cn(-c3ccccc3)nc2-c2ccccc2)cc1 (stereo unspecified)', 'growth', '%', 62),
  ('C=C1C[C@@]2(C)C(CC[C@]3(C)C2CC=C2C4CC(C)(C)C[C@@H](OC(=O)/C(C)=C\C)[C@]4(C(=O)O)CC[C@]23C)C(C)(C)C1=O (stereo partly specified)', 'growth', '%', -15.6);
